A collection of compounds and their measured number of PRBCs per 10,000 red blood cells, Chloroquine 2 mg
# Test system: Chloroquine-resistant malaria plasmodium Plasmodium chabaudi (AS strain: chloroquine-resistant (3CQ))
# experiment_description: Test 1: resistance overcoming effect, in vivo test with chloroquine-resistant mouse malaria strain
# condition_set: ICR male mice; test compound 50 mg/kg i.p. + chloroquine 2 mg/kg i.p., days 0-3; counted on 5th day; Control = chloroquine only

Ask: Give number of PRBCs per 10,000 red blood cells, Chloroquine 2 mg for C=CC(O)CN1CCN(C2c3ccccc3CCc3ccccc32)CC1 (stereo not shown)
Result: 430 per 10,000 red blood cells

====

A collection of compounds and their measured number of PRBCs per 10,000 red blood cells, Chloroquine 2 mg
# Tested on: Chloroquine-resistant malaria plasmodium Plasmodium chabaudi (AS strain: chloroquine-resistant (3CQ))
# experiment_description: Test 1: resistance overcoming effect, in vivo test with chloroquine-resistant mouse malaria strain
# condition_set: ICR male mice; test compound 50 mg/kg i.p. + chloroquine 2 mg/kg i.p., days 0-3; counted on 5th day; Control = chloroquine only

Ask: Give number of PRBCs per 10,000 red blood cells, Chloroquine 2 mg for CCN(CC)CCCC(C)Nc1ccnc2cc(Cl)ccc12 (stereo not drawn) [Control, chloroquine, reference compound]
Result: 4900 per 10,000 red blood cells

Ask: Give number of PRBCs per 10,000 red blood cells, Chloroquine 2 mg for C=CCCCCCCC(O)CN1CCN(C2c3ccccc3CCc3ccccc32)CC1 (stereo not drawn) [Compound 1]
Result: 3100 per 10,000 red blood cells

Ask: Give number of PRBCs per 10,000 red blood cells, Chloroquine 2 mg for C=CCCCCC(O)CN1CCN(C2c3ccccc3CCc3ccccc32)CC1 (stereo not drawn) [Compound 2]
Result: 0 per 10,000 red blood cells
